These measurements were taken from the supplement of paper PMC10567573.

B1: MGC27345 (parent)
chain: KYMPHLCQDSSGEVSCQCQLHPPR

Variants of: B1
Assay: protein stability index of a GFP-peptide fusion (GPS, HEK-293T) (PSI 1-6); higher = more stable;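 further: lentivirally expressed fusions sorted by FACS into six bins by GFP to DsRed ratio, PSI derived from sequencing read proportions per bin multiplied by bin number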
Details: c terminus: a fixed tail appended
quantity-kind: protein stability index
Give bare numbers.

List protein stability index for every entry below, keeping the order given.
1. V14W
2. S11T
3. Y2N

Reply:
1: 2.42; 2: 2.1; 3: 3.13

List protein stability index for every entry below, keeping the order given.
1. C16M
2. E13S
3. S15I

Reply:
2.9
2.26
1.63
